This collection of values is drawn from ChEMBL document CHEMBL1148751.

Tested on: SF-539
assayMethodText: Cytotoxicity against human SF539 cells
Assay type: functional
Would you mind telling me the reported GI50 of each entry?

GI50 lookup needed for [N-]=[N+]=NCCCn1c2c(c3ccc([N+](=O)[O-])cc3c1=O)C(=O)c1cc(Br)ccc1-2 , thanks.
> 100 µM

Please give the result for [N-]=[N+]=NCCCn1c2c(c3ccc([N+](=O)[O-])cc3c1=O)C(=O)c1cc(-c3ccccc3)ccc1-2 too.
> 100 µM

Next molecule: COc1cc2c3c(n(CCCN=[N+]=[N-])c(=O)c2cc1OC)-c1ccc(N(C)C)cc1C3=O
> 100 µM

Here is the next molecule: NCCCn1c2c(c3ccc([N+](=O)[O-])cc3c1=O)C(=O)c1cc(Cl)ccc1-2
< 0.01 µM

Param item: COC(=O)c1ccc2c(c1)C(=O)c1c-2n(CCCN=[N+]=[N-])c(=O)c2cc(OC)c(OC)cc12
> 100 µM
